test system: Hep G2 cells; test: In vitro toxicity: Hep G2 cell viability by CellTiter-Glo; format: cell-based; conditions: Formulation No. 001, RNA No. 331, 1 μg/mL RNA-LNPs, 72 hours post transfection, cell only = 100%
Returns: string. Value is t if measured In vitro cell viability (%) (Mean) is below 90%, and f if it is greater than or equal to it.

Please review the following examples before continuing.
Task: Dear colleague, could you confirm whether In vitro cell viability (%) (Mean) of CCCCC/C=C\C/C=C\CCCCCCCCOC(=O)NC(COC(=O)NCCN1CCCCCC1)C(=O)OCCCCCCCCCC(=O)OCCCCCCC (stereo not drawn) [Lipid 959] falls below 90%? Thanks.
Output: f

Task: Is In vitro cell viability (%) (Mean) strictly under 90% for the entry CCCCCCCCC(CCCCCC)C(=O)OCCCCCCCCOC(=O)NC(COC(=O)NCCN1CCCCCC1)C(=O)OCCCCCCCCCCC(=O)OCCCCCC (stereo not drawn) [Lipid 929] ?
Output: f

Task: Please let me know if CCCCC/C=C\C/C=C\CCCCCCCCOC(=O)C(COC(=O)NCCN1CCCCCC1)NC(=O)OCCCCCCCCOC(=O)C(CCCCCC)CCCCCCCC (stereo not drawn) [Lipid 919] shows In vitro cell viability (%) (Mean) below 90%.
Output: t

Consider now this further compound.
Task: Find out if reported In vitro cell viability (%) (Mean) for CCCCCCCCCCCOC(=O)NC(COC(=O)NCCN1CCCCC1)C(=O)OCCCCCCCC(=O)OC(CCCCCCCC)CCCCCCCC (stereo not drawn) [Lipid 914] is less than 90%
Output: t

* * *

assay: RNA encapsulation efficacy (EE %) by Quant-IT Ribogreen kit; format: physicochemical; conditions: LNP, Formulation No. 001, RNA No. 331
This listing pairs molecules with measured EE (%).
Express your answer in %, writing the number without its unit.

Consider CCCCCCCCCCC(CCCCCCCC)COC(=O)CCCCCOC(=O)NC(COC(=O)NCCN1CCCC1)C(=O)OCCCCCC(=O)OCC(CCCCCCCC)CCCCCCCCCC (stereo not drawn) [Lipid 1019] . Its measured EE (%) is 97.11

What the record says about CCCCCCCCCCC(CCCCCCCC)COC(=O)CCCCCOC(=O)NC(COC(=O)NCCN1CCCCCC1)C(=O)OCCCCCC(=O)OCC(CCCCCCCC)CCCCCCCCCC (stereo not drawn) [Lipid 1021] : EE (%) is 93.55

Looking up CCCCC/C=C\C/C=C\CCCCCCCC(=O)NC(COC(=O)NCCN1CCCCC1)C(=O)OCCCCCC(=O)OCC(CCCCCCCC)CCCCCCCCCC (stereo not drawn) [Lipid 728] , I see its EE (%) listed as 96.53

Just so you know, measured EE (%) for CCCCC/C=C\C/C=C\CCCCCCCCOC(=O)NC(COC(=O)NCCN1CCCCCC1)C(=O)OCCCCCC(=O)OCCCCCCCCCCC (stereo not drawn) [Lipid 939] came out at 90.23

New cases:
get_value(item= CCCCC/C=C\C/C=C\CCCCCCCCOC(=O)NC(COC(=O)NCCN1CCCCCC1)C(=O)OCCCCCCCCCC(=O)OCCCCCCC (stereo not drawn) [Lipid 959] , readout=EE (%)) returns 95.49

The reported EE (%) of the molecule CCCCCCCC/C=C\CCCCCCCCOC(=O)NC(COC(=O)NCCN1CCCCCC1)C(=O)OCCCCCC(=O)OCC(CCCCCCCC)CCCCCCCCCC (stereo not drawn) [Lipid 1041] was 90.29

The recorded EE (%) for CCCCCCCCCCCOC(=O)NC(COC(=O)NCCN(C)C)C(=O)OCCCCCCCC(=O)OC(CCCCCCCC)CCCCCCCC (stereo not drawn) [Lipid 912] is 97.83

Summary for this molecule, CCCCCCCCCCCOC(=O)CCCCCOC(=O)C(COC(=O)NCCN1CCCCC1)NC(=O)OCCCCCCCCOC(=O)C(CCCCCC)CCCCCCCC (stereo not drawn) [Lipid 923] : EE (%) is 88.91

molecule CCCCCCCC/C=C\CCCCCCCC(=O)NC(COC(=O)NCCN1CCCCC1)C(=O)OCCCCCC(=O)OCC(CCCCCCCC)CCCCCCCCCC (stereo not drawn) [Lipid 792] , EE (%) observed: 92.11

Entry under test: CCCCC/C=C\C/C=C\CCCCCCCCOC(=O)NC(COC(=O)NCCN1CCCCCC1)C(=O)OCCCCCC(=O)OCC(CCCCCCCC)CCCCCCCCCC (stereo not drawn) [Lipid 911] . Its EE (%) was 98.24

response.value for CCCCCCCCC(CCCCCCCC)OC(=O)CCCCCCCOC(=O)C(COC(=O)NCCN1CCCCCC1)NC(=O)OCCCCCCCCOC(=O)C(CCCCCC)CCCCCCCC (stereo not drawn) [Lipid 897] (field: EE (%)) = 95.30

What the record says about CCCCC/C=C\C/C=C\CCCCCCCCOC(=O)C(COC(=O)NCCN1CCCCCC1)NC(=O)OCCCCCCCCOC(=O)C(CCCCCC)CCCCCCCC (stereo not drawn) [Lipid 919] : EE (%) is 96.20

* * *

assay: RNA encapsulation efficacy (EE %) by Quant-IT Ribogreen kit; assay type: physicochemical; details: LNP, Formulation No. 001, RNA No. 331
Let's look at some compounds and their measured EE (%).
Report the value in % with no unit label.

# EE (%) (compound: CCCCC/C=C\C/C=C\CCCCCCCC(=O)N[C@@H](COC(=O)NCCN1CCCCCC1)C(=O)OCCCCCCCC(=O)OC(CCCCCCCC)CCCCCCCC [Lipid 602] ) is 97.94

Value of EE (%) reported for the compound CCCCC/C=C\C/C=C\CCCCCCCCOC(=O)NC(COC(=O)NCCN1CCCCCC1)C(=O)OCCCCCCCCOC(=O)C(CCCCCC)CCCCCCCC (stereo not drawn) [Lipid 881] is 90.26

For reference, reported EE (%) for CCCCC/C=C\C/C=C\CCCCCCCC(=O)NC(COC(=O)NCCN1CCCCCC1)C(=O)OCCCCCCCC(=O)OC(CCCCCCCC)CCCCCCCC (stereo not drawn) [Lipid 550] stands at 94.50

Continuing:
Memo: CCCCCCCCC(CCCCCC)C(=O)OCCCCCCCCOC(=O)NC(COC(=O)NCCN1CCCCC1)C(=O)OCCCCCCCCOC(=O)C(CCCCCC)CCCCCCCC (stereo not drawn) [Lipid 888] , reported EE (%): 93.81

For reference, reported EE (%) for CCCCCCCCC(CCCCCC)C(=O)OCCCCCCCCOC(=O)NC(COC(=O)NCCN1CCCCC1)C(=O)OCCCCCCCCCCC(=O)OCCCCCC (stereo not drawn) [Lipid 928] stands at 87.36

Lab note: CCCCCCCC/C=C\CCCCCCCC(=O)NC(COC(=O)NCCN1CCCCC1)C(=O)OCCCCCCCC(=O)OC(CCCCCCCC)CCCCCCCC (stereo not drawn) [Lipid 736] gave EE (%) of 91.61

* * *

assay: LNP size and polydispersity index (PDI) by dynamic light scattering (Zetasizer); type: physicochemical; conditions: Formulation No. 001, RNA No. 331
Rule: PDI under 0.05 gives NO, otherwise YES.

Use these answered entries as a reference point.
Task: Test whether the compound CCCCC/C=C\C/C=C\CCCCCCCCOC(=O)NC(COC(=O)NCCN1CCCCCC1)C(=O)OCCCCCC(=O)OCCCCCCCCCCC (centres unmarked) records PDI of 0.05 or higher.
Output: YES

Task: # bool: PDI of CCCCC/C=C\CCOC(=O)CCCCCOC(=O)C(COC(=O)NCCN1CCCCCC1)NC(=O)OCCCCCCCCOC(=O)C(CCCCCC)CCCCCCCC (centres unmarked) >= 0.05
Output: NO

Task: Given the entry CCCCC/C=C\C/C=C\CCCCCCCCOC(=O)NC(COC(=O)NCCN1CCCC1)C(=O)OCCCCCC(=O)OCC(CCCCCCCC)CCCCCCCCCC (centres unmarked) , answer whether its PDI meets or surpasses 0.05.
Output: NO

Task: Textbook exercise: given the entry CCCCCCCC/C=C\CCCCCCCCOC(=O)NC(COC(=O)NCCN1CCCCCC1)C(=O)OCCCCCC(=O)OCC(CCCCCCCC)CCCCCCCCCC (centres unmarked) , state whether its PDI is greater than or equal to 0.05.
Output: YES

Task: Please check the record CCCCC/C=C\C/C=C\CCCCCCCCOC(=O)NC(COC(=O)NCCN1CCCCCC1)C(=O)OCCCCCCCCOC(=O)C(CCCCCC)CCCCCCCC (centres unmarked) and state if its PDI is at or above 0.05.
Output: NO

Further cases:
Task: I'd appreciate it if you could say whether CCCCCCCC/C=C\CCCCCCCC(=O)NC(COC(=O)NCCN1CCCCC1)C(=O)OCCCCCCCCOC(=O)C(CCCCCC)CCCCCCCC (centres unmarked) has PDI at least equal to 0.05.
Output: YES

Task: Hi team, for CCCCCCCCCCC(CCCCCCCC)COC(=O)CCCCCOC(=O)NC(COC(=O)NCCN1CCCC1)C(=O)OCCCCCC(=O)OCC(CCCCCCCC)CCCCCCCCCC (centres unmarked) , is the recorded PDI at or above 0.05?
Output: YES

Task: Hi team, for CCCCC/C=C\C/C=C\CCCCCCCCOC(=O)C(COC(=O)NCCN1CCCCCC1)NC(=O)OCCCCCCCCOC(=O)C(CCCCCC)CCCCCCCC (centres unmarked) , is the recorded PDI at or above 0.05?
Output: NO

Task: API: above_or_equal(metric=PDI, cutoff=0.05) for item CCCCCCCCC(CCCCCCCC)OC(=O)CCCCCCCOC(=O)C(COC(=O)NCCN1CCCCCC1)NC(=O)OCCCCCCCCOC(=O)C(CCCCCC)CCCCCCCC (centres unmarked)
Output: NO

Task: Identify whether the reported PDI of the following compound is 0.05 or greater: CCCCC/C=C\C/C=C\CCCCCCCCOC(=O)NC(COC(=O)NCCNC)C(=O)OCCCCCC(=O)OCC(CCCCCCCC)CCCCCCCCCC (centres unmarked)
Output: NO
